Assay: qHTS Screen of the MIPE 4.0 Collection Against Ewings Sarcoma (EW8) (AID 1259255); note: nearly all actives have a fitted effect of over 35% in size;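 for viability: 100% = DMSO-treated cells and 0% = medium-only wells without cells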
Conditions: EW8 Ewing sarcoma viability, CellTiter-Glo, 48 h; series mostly up to 45.8 µM
Results filed as inconclusive are left out. Active and inactive are the calls of the source. Calls come from the whole dose curve; as a rule, active = well fitted inhibition curve with a large enough effect; inconclusive = small, poorly fitted or top-dose-only effect; inactive = no such curve, though single readings can be large or run the other way.
Outcome (select one): 1.0 = active, 0.0 = inactive

Worked cases, answers included:
# molecule, answer.label
rows = [
    ("O=C(O)c1cccnc1", 0.0),
    ("CC(C(=O)O)c1ccc2c(c1)CC(=O)c1ccccc1S2 (stereo not given)", 0.0),
    ("O=NN(CCCl)C(=O)NC1CCCCC1", 0.0),
    ("S=P(N1CC1)(N1CC1)N1CC1", 1.0),
    ("CCC(=O)O[C@]1(C(=O)SCF)[C@H](C)C[C@H]2[C@@H]3C[C@H](F)C4=CC(=O)C=C[C@]4(C)[C@@]3(F)[C@@H](O)C[C@@]21C", 0.0),
    ("C[C@@H](NCCCc1cccc(C(F)(F)F)c1)c1cccc2ccccc12", 0.0),
    ("CCOCC(O)COc1ccc(NC(=O)CC[S+](C)C)cc1 (stereo not given)", 0.0),
    ("O=S(=O)(O)CCS", 0.0),
    ("O=C(NCC1CN(c2ccc(N3CCOCC3=O)cc2)C(=O)O1)c1ccc(Cl)s1 (stereo not given)", 0.0),
    ("CN(C)CCc1c[nH]c2ccc(C[C@H]3COC(=O)N3)cc12", 0.0),
]

Ask | Please indicate how the test categorized COc1ncnc(NS(=O)(=O)c2ccc(N)cc2)c1OC .
Reply | 0.0

Ask | # fetch the recorded call for Cc1ccnc2c1NC(=O)c1cccnc1N2C1CC1 here
Reply | 0.0

Ask | Recorded test call requested for NC(=O)N1c2ccccc2CC(=O)c2ccccc21
Reply | 0.0

Ask | Test call, this molecule: O=S(=O)(c1cccc2cnccc12)N1CCCNCC1
Reply | 0.0

Ask | Just curious, what result did COC(=O)Nc1nc2ccc(S(=O)c3ccccc3)cc2[nH]1 (stereo not given) get here?
Reply | 1.0
